Target or test system: Urotensin-2 receptor (Rattus norvegicus) (UniProt P49684)
Sequence (whole entry): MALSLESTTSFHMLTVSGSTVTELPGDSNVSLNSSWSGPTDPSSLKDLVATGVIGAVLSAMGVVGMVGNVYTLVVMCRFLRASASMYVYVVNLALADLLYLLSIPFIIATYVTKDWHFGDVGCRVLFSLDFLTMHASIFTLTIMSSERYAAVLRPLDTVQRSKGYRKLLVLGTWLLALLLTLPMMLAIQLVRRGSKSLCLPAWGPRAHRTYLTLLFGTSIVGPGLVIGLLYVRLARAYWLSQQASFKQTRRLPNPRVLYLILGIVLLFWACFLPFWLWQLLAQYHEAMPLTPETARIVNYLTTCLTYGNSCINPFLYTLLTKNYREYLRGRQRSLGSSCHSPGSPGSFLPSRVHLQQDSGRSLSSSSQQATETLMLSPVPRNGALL
Assay notes: Agonist activity at urotensin-2 receptor in Sprague-Dawley rat aortic rings assessed as KCl-induced vasoconstriction at 10^-5.5 M relative to control
Positions of bridges follow the written chain, without caps; N, C: chain ends. Residues, ends and D or L forms follow the SMILES beside them.
Parameter measured: Emax (%)

Consider the following illustrative entries.
{"Compound": "CC(C)[C@H](NC(=O)[C@@H]1CSSC[C@H](NC(=O)[C@H](C)N)C(=O)N[C@@H](Cc2ccccc2)C(=O)N[C@@H](CC2CCCCC2)C(=O)N[C@@H](CCCCN)C(=O)N[C@@H](Cc2ccc(O)cc2)C(=O)N1)C(=O)O", "Target or test system": "Urotensin-2 receptor (Rattus norvegicus) (UniProt P49684)", "Emax (%)": 77}
{"Compound": "CC(C)[C@H](NC(=O)[C@@H]1CSSC[C@H](NC(=O)[C@H](C)N)C(=O)N[C@@H](Cc2ccccc2)C(=O)N[C@@H](C(c2ccccc2)c2ccccc2)C(=O)N[C@@H](CCCCN)C(=O)N[C@@H](Cc2ccc(O)cc2)C(=O)N1)C(=O)O", "Target or test system": "Urotensin-2 receptor (Rattus norvegicus) (UniProt P49684)", "Emax (%)": 23}
{"Compound": "CC(C)[C@H](NC(=O)[C@@H]1CSSC[C@H](NC(=O)[C@H](C)N)C(=O)N[C@@H](Cc2ccccc2)C(=O)N[C@@H](Cc2ccc(I)cc2)C(=O)N[C@@H](CCCCN)C(=O)N[C@@H](Cc2ccc(O)cc2)C(=O)N1)C(=O)O", "Target or test system": "Urotensin-2 receptor (Rattus norvegicus) (UniProt P49684)", "Emax (%)": 92}
{"Compound": "CC(C)[C@H](NC(=O)[C@@H]1CSSC[C@H](NC(=O)[C@H](C)N)C(=O)N[C@@H](Cc2ccccc2)C(=O)N2Cc3ccccc3C[C@H]2C(=O)N[C@@H](CCCCN)C(=O)N[C@@H](Cc2ccc(O)cc2)C(=O)N1)C(=O)O", "Target or test system": "Urotensin-2 receptor (Rattus norvegicus) (UniProt P49684)", "Emax (%)": 43}
{"Compound": "CC(C)[C@H](NC(=O)[C@@H]1CSSC[C@H](NC(=O)[C@H](CC(=O)O)NC(=O)[C@@H]2CCCN2C(=O)[C@@H](NC(=O)[C@@H](N)CCC(=O)O)[C@@H](C)O)C(=O)N[C@@H](Cc2ccccc2)C(=O)N2CCC[C@H]2C(=O)N[C@@H](CCCCN)C(=O)N[C@@H](Cc2ccc(O)cc2)C(=O)N1)C(=O)O (H-ETPDCFPKYCV-OH; disulfide 5-10)", "Target or test system": "Urotensin-2 receptor (Rattus norvegicus) (UniProt P49684)", "Emax (%)": 69}

A = CC(C)[C@H](NC(=O)[C@@H]1CSSC[C@H](NC(=O)[C@H](C)N)C(=O)N[C@@H](Cc2ccccc2)C(=O)N2Cc3[nH]c4ccccc4c3C[C@@H]2C(=O)N[C@@H](CCCCN)C(=O)N[C@@H](Cc2ccc(O)cc2)C(=O)N1)C(=O)O
B = CC(C)[C@H](NC(=O)[C@@H]1CSSC[C@H](NC(=O)[C@H](C)N)C(=O)N[C@@H](Cc2ccccc2)C(=O)N[C@H](C(C)(C)C)C(=O)N[C@@H](CCCCN)C(=O)N[C@@H](Cc2ccc(O)cc2)C(=O)N1)C(=O)O
Q. Please choose the item with the lower Emax value from this pair: A and B Give the chosen item's label as your response.
A. A
(A: 42%, B: 64%)
